Assay: five-day pharmacokinetics by LC-MS, serum and brain
Assay type: in vivo, mice
Details: SCID, mouse, brain; 200 mg/kg oral gavage, five days; 300 minutes post-dosing; mean ± SD, N = 3; read-out: [Brain]

| compound_structure | concentration at 300 min / nM |
| --- | --- |
| C1=C/COCc2cc(ccc2OCCN2CCCC2)Nc2nccc(n2)-c2cccc(c2)COC/1 | 840 |

----------
Assay: in vitro
Assay type: in vitro ADME, mouse
Conditions: male, CD-1, mouse, microsomes, % Remaining
observed_property: remaining at 0.5 h, 1 μM (%)

| compound | experimental_value |
| --- | --- |
| Cc1cc(=O)n(-c2ccccc2)n1C [Antipyrine] | 96.5 |

----------
Assay: five-day pharmacokinetics by LC-MS, serum and brain
Assay type: in vivo, mice
Conditions: SCID, mouse, serum; 100 mg/kg oral gavage, five days; 300 minutes post-dosing; mean ± SD, N = 3; read-out: [Serum]

| compound | concentration at 300 min / nM |
| --- | --- |
| C1=C/COCc2cc(ccc2OCCN2CCCC2)Nc2nccc(n2)-c2cccc(c2)COC/1 [pacritinib] | 510 |

----------
System: BT12
Assay: alamarBlue BTIC viability assay, BT12
Conditions: Homo sapiens, BT-12, read-out: IC50 (viability)
observed_property: IC50 (nM)

| compound_structure | experimental_value |
| --- | --- |
| C1=C/COCc2cc(ccc2OCCN2CCCC2)Nc2nccc(n2)-c2cccc(c2)COC/1 | 1660 |

----------
Test: five-day pharmacokinetics by LC-MS, serum and brain
Type: in vivo, mice
Conditions: SCID, mouse, serum; 200 mg/kg oral gavage, five days; 300 minutes post-dosing; mean ± SD, N = 3; read-out: [Serum]

| compound | uom | concentration at 300 min |
| --- | --- | --- |
| C1=C/COCc2cc(ccc2OCCN2CCCC2)Nc2nccc(n2)-c2cccc(c2)COC/1 [pacritinib] | nM | 430 |

----------
Tested on: BT53
Test: alamarBlue BTIC viability assay, BT53
Details: Homo sapiens, read-out: IC50 (viability)
observed_property: IC50 (nM)

| compound | observed_property | uom | experimental_value |
| --- | --- | --- | --- |
| C1=C/COCc2cc(ccc2OCCN2CCCC2)Nc2nccc(n2)-c2cccc(c2)COC/1 [pacritinib] | IC50 | nM | 920 |

----------
Experiment: five-day pharmacokinetics by LC-MS, serum and brain
Format: in vivo, mice
Conditions: SCID, mouse, serum; 100 mg/kg oral gavage, five days; 30 minutes post-dosing; mean ± SD, N = 3

| compound_structure | concentration at 30 min [nM] |
| --- | --- |
| C1=C/COCc2cc(ccc2OCCN2CCCC2)Nc2nccc(n2)-c2cccc(c2)COC/1 | 2660 |

----------
Assay: in vitro
Type: in vitro ADME, mouse
Settings: male, CD-1, mouse, liver microsomes, mouse liver microsomes, 30-minute incubation, 1 μM; read-out: % Remaining
observed_property: remaining at 0.5 h, 1 μM (%)

| compound | uom | experimental_value |
| --- | --- | --- |
| CC(C)NCC(O)COc1cccc2ccccc12 (stereo not shown) | % | 9.6 |

----------
Test system: BT68
Experiment: alamarBlue BTIC viability assay, BT68
Assay type: cell-based
Conditions: Homo sapiens; BTIC line BT68, alamarBlue
observed_property: IC50 (nM)

| compound_structure | observed_property | experimental_value |
| --- | --- | --- |
| C1=C/COCc2cc(ccc2OCCN2CCCC2)Nc2nccc(n2)-c2cccc(c2)COC/1 | IC50 | 1220 |
